Molecular target: UniProtKB P9WQ51
Sequence (P9WQ51 whole entry): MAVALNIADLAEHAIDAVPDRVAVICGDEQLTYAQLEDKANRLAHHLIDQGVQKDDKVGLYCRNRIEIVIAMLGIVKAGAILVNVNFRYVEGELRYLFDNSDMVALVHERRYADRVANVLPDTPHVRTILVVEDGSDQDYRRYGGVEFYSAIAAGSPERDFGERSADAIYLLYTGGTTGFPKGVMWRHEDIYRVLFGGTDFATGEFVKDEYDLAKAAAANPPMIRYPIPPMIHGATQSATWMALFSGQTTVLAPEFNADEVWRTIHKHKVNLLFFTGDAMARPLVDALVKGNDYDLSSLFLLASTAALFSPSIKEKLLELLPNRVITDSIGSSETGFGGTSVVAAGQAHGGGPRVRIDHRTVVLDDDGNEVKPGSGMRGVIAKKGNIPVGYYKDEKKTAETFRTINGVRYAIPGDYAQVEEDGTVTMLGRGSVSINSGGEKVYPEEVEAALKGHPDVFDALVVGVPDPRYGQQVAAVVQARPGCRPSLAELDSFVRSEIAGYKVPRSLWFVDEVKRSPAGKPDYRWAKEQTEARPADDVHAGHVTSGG
Assay: Coupled continuous enzyme kinetic assay
Format: biochemical
Reported Ki values follow for various compounds

Sample records with Ki:
compoundStructureString	Ki
CCCCCCCCCC[C@@H](C)C(=O)NS(=O)(=O)OC[C@H]1O[C@@H](n2cnc3c(N)ncnc32)[C@H](O)[C@@H]1O	> 100 µM
CCCCCCCCCC[C@H](C)C(=O)NS(=O)(=O)OC[C@H]1O[C@@H](n2cnc3c(N)ncnc32)[C@H](O)[C@@H]1O	> 100 µM

Reported Ki of CCCCC/C=C\CCCC(=O)NS(=O)(=O)OC[C@H]1O[C@@H](n2cnc3c(N)ncnc32)[C@H](O)[C@@H]1O : > 100 µM
